# assay.target: RARβ2 (Homo sapiens, UniProt P10826)
# Construct: expressed in transfected cells
# Sequence (P10826 1-448 isoform P10826-2): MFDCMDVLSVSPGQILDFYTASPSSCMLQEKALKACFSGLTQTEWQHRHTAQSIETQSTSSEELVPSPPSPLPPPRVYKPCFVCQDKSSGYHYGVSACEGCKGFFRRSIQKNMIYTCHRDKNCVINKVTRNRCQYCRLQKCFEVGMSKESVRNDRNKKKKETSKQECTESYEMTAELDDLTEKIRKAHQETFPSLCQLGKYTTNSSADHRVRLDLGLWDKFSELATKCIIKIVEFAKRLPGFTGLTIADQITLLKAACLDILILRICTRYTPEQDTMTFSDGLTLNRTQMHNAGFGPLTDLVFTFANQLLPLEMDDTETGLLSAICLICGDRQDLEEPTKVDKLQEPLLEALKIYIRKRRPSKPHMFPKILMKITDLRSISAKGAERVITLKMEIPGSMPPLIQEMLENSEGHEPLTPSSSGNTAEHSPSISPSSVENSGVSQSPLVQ
# method: Receptor Selection and Amplification Technology (R-SAT) functional receptor assay
# Assay type: cell-based
# measurement.setup: Table 2, efficacy relative to the maximal response of the reference ligand Am-580, read-out: % Eff.

cpd.smiles: CCCCCCCOc1ccc(-c2ccc(C(=O)OCCc3ccccn3)cc2)cc1
measurement.unit: %
Emax: 62

cpd.smiles: CCCCCCCCc1ccc(-c2ccc(C(=O)OCc3ccco3)cc2)cc1
measurement.unit: %
Emax: 49

cpd.smiles: CCCCCCCc1ccc(-c2ccc(C(=O)OCCc3ccccn3)c(F)c2)cc1
measurement.unit: %
Emax: 95

cpd.smiles: CCCCCCCc1ccc(-c2ccc(C(=O)OCCC#N)cc2)cc1
measurement.unit: %
Emax: 36

cpd.smiles: CCCCCCCCOc1ccc(-c2ccc(C(=O)OCc3ccco3)cc2)cc1
measurement.unit: %
Emax: 67
